# assay_target: inactive, unphosphorylated (0-phos), human IRAK4 FL (Full Length) (Homo sapiens (Human))
# test_summary: IRAK4 Enzymatic DELFIA Assay, Protocol B
# condition_description: 600 μM ATP (KM), full-length recombinant human IRAK4
measured_property: IC50 (nM)

{"columns": ["compound", "IC50 (nM)"],
 "data": [
  ["COc1cc2c(OC[C@H]3NC(=O)[C@@H](F)C34CC4)nccc2cc1C(N)=O", 0.8],
  ["COc1cc2c(OC[C@@]34C[C@@H]3CC(=O)N4)nccc2cc1C(N)=O", 1200],
  ["CC[C@@H]1[C@H](F)C(=O)N[C@@H]1COc1cccc2cc(C(N)=O)c(OC)nc12", 2],
  ["CC[C@@H]1CC(=O)N[C@@H]1COc1cncc2cc(C(N)=O)c(OC)cc12", 2.7],
  ["CC(C)Oc1cc2c(OC[C@@H]3CCC(=O)N3)ncc(-c3nc(CO)c[nH]3)c2cc1C(N)=O", 190]
]}

P. CNC(=O)c1cc2ccnc(OC[C@H]3NC(=O)[C@@H](F)[C@H]3C)c2cc1OC
Q. COc1cc2c(OC[C@]34C[C@H]3CC(=O)N4)nccc2cc1C(N)=O
Q) Which has the smaller recorded IC50, P or Q ? Please respond with the label that marks your chosen entry.
A) Q
(Q: 151 nM, P: 2000 nM)

I. Cc1cnc(-c2cnc(OC[C@@H]3CCC(=O)N3)c3cc(OC(C)C)c(C(N)=O)cc23)o1
II. Cc1coc(-c2cnc(OC[C@@H]3CCC(=O)N3)c3cc(OC(C)C)c(C(N)=O)cc23)n1
III. COc1cc2c(OC[C@@H]3NC(=O)[C@H](F)C34CC4)nccc2cc1C(N)=O
IV. CC(C)Oc1cc2c(OC[C@H]3NC(=O)[C@H](F)C34CC4)nccc2cc1C(N)=O
V. COc1cc2c(OC[C@H]3NC(=O)[C@H](F)C34CC4)nccc2cc1C(N)=O
Q) In this exercise, place the 5 compounds in ascending sequence of their recorded IC50. // respond by listing labels in the order requested
A) IV, II, I, V, III

---

# assay_target: human IRAK4 FL (Full Length), phosphorylated (Homo sapiens (Human), UniProt Q9NWZ3)
# Sequence (Q9NWZ3 whole entry): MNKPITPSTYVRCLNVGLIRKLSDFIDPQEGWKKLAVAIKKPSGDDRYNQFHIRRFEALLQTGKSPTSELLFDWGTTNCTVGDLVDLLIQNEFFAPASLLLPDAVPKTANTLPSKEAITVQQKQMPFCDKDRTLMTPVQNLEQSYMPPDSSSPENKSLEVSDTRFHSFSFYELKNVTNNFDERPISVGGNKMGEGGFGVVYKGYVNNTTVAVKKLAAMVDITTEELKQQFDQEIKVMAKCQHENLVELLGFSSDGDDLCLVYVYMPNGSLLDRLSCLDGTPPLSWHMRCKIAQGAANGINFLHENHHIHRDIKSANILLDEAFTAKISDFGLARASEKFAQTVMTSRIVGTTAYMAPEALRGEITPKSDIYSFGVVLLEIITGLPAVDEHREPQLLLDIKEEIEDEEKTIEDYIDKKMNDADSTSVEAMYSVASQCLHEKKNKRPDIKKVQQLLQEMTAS
# test_summary: IRAK4 Enzymatic DELFIA Assay, Protocol A
# Assay type: biochemical
# condition_description: 600 μM ATP (KM); full-length phosphorylated recombinant human IRAK4
measured_property: IC50 (µM)

P. CC[C@@H]1CC(=O)N[C@@H]1COc1ncc(NS(=O)(=O)c2cn(C)c(C)n2)c2cc(C(N)=O)c(OC(C)C)cc12
Q. COc1cc2c(OC[C@@H]3NC(=O)[C@H](F)C34CC4)nccc2cc1C(N)=O
R. CC[C@@H]1[C@H](F)C(=O)N[C@@H]1COc1cccc2cc(C(N)=O)c(OC)nc12
S. Cc1cnc(-c2cnc(OC[C@@H]3CCC(=O)N3)c3cc(OC(C)C)c(C(N)=O)cc23)o1
T. Cc1coc(-c2cnc(OC[C@@H]3CCC(=O)N3)c3cc(OC(C)C)c(C(N)=O)cc23)n1
Q) Sequence the entries by IC50, beginning with the highest number. // rank by listing labels in the order requested
A) P, Q, T, S, R

---

# assay_target: human IRAK4 FL (Full Length), phosphorylated (Homo sapiens (Human))
# test_summary: IRAK4 Enzymatic DELFIA Assay, Protocol A
# condition_description: 600 μM ATP (KM); full-length phosphorylated recombinant human IRAK4
pIC50: −log10 of the molar value.
measured_property: pIC50

Reference set, count: 2
{"columns": ["compound", "pIC50"],
 "data": [
  ["CC[C@@H]1CC(=O)N[C@@H]1COc1ncc(NS(=O)(=O)c2cn(C)cn2)c2cc(C(N)=O)c(OC(C)C)cc12 [Example 13]", "< 4.00"],
  ["CC[C@@H]1CC(=O)N[C@@H]1COc1ncc(NS(=O)(=O)c2ccccc2)c2cc(C(N)=O)c(OC(C)C)cc12 [Example 10]", "< 4.00"]
]}

Please find the next compound below.
Q) Determine from records and report pIC50 for CC[C@@H]1CC(=O)N[C@@H]1COc1ncc(NS(=O)(=O)c2c[nH]cn2)c2cc(C(N)=O)c(OC(C)C)cc12 [Example 12]
A) < 4.00

---

# assay_target: inactive, unphosphorylated (0-phos), human IRAK4 FL (Full Length) (Homo sapiens (Human))
# test_summary: IRAK4 Enzymatic DELFIA Assay, Protocol B
# condition_description: 600 μM ATP (KM), full-length recombinant human IRAK4
measured_property: IC50 (nM)

Observe how each entry below is paired with its result.
{"columns": ["molecule", "unit_spec", "IC50"],
 "data": [
  ["CC[C@@H]1CC(=O)N[C@@H]1COc1ncc(NS(=O)(=O)c2ccccc2)c2cc(C(N)=O)c(OC(C)C)cc12", "nM", 5700],
  ["CC[C@@H]1[C@H](F)C(=O)N[C@@H]1COc1nccc2nc(C(N)=O)c(OC)cc12", "nM", 4.5],
  ["CC(C)Oc1cc2c(OC[C@@H]3CCC(=O)N3)ncc(-c3ccn(C)n3)c2cc1C(N)=O", "nM", 10],
  ["CC[C@@H]1CC(=O)N[C@@H]1COc1ncc(NS(=O)(=O)c2cccnc2)c2cc(C(N)=O)c(OC(C)C)cc12", "nM", 1300]
]}

1. COc1cc2c(OCC34CC3CC(=O)N4)nccc2cc1C(N)=O (racemic)
2. CC[C@@H]1[C@H](F)C(=O)N[C@@H]1COc1cncc2cc(C(N)=O)c(OC)cc12
3. CC[C@@H]1[C@H](F)C(=O)N[C@@H]1COc1ncc(N)c2cc(C(N)=O)c(OC)cc12
Q) Number of molecules to sort: 3. Sort criterion: IC50, ascending. List each label, following the requested order.
A) 2, 3, 1

P. CC(C)Oc1cc2c(OC[C@@H]3NC(=O)[C@@H](F)C34CC4)nccc2cc1C(N)=O
Q. CC[C@@H]1CC(=O)N[C@@H]1COc1ncc(NS(=O)(=O)c2cn(C)cn2)c2cc(C(N)=O)c(OC(C)C)cc12
R. CC(C)Oc1cc2c(OC[C@H]3NC(=O)[C@@H](F)C34CC4)nccc2cc1C(N)=O
S. CC(C)Oc1cc2c(OC[C@@H]3CCC(=O)N3)ncc(-c3cnn(C)c3)c2cc1C(N)=O
Q) Reorder the items by IC50, least to greatest. To answer, write out the labels according to the requested order.
A) R, S, P, Q

1. CC[C@@H]1CC(=O)N[C@@H]1COc1ncc(NS(=O)(=O)c2cn(C)c(C)n2)c2cc(C(N)=O)c(OC(C)C)cc12
2. CC(C)Oc1cc2c(OC[C@@H]3CCC(=O)N3)ncc(-c3ncco3)c2cc1C(N)=O
Q) When the recorded IC50 values are compared, which is smaller: that of 1 or that of 2 ? Output the label that corresponds to your choice.
A) 2
(2: 4 nM, 1: 15000 nM)

P. COc1cc2c(OC[C@@H]3NC(=O)[C@@H](F)C34CC4)nccc2cc1C(N)=O
Q. Cc1nc(-c2cnc(OC[C@@H]3CCC(=O)N3)c3cc(OC(C)C)c(C(N)=O)cc23)oc1C
Q) I'm curious whether P or Q has the smaller IC50 number. Which is it? Let me know the label of the one you choose.
A) Q

1. CC(C)Oc1cc2c(OC[C@@H]3NC(=O)[C@H](F)C34CC4)nccc2cc1C(N)=O
2. CC[C@@H]1[C@H](F)C(=O)N[C@@H]1COc1cccc2cc(C(N)=O)c(OC)cc12
3. Cc1c[nH]c(-c2cnc(OC[C@@H]3CCC(=O)N3)c3cc(OC(C)C)c(C(N)=O)cc23)n1
Q) List from greatest to least IC50. Returns: the labels arranged in the requested order.
A) 1, 3, 2
